Measured IC50, listed per entry.
- Target System: Rac GTPase-activating protein 1 (Homo sapiens)
- Sequence (Q9H0H5 whole entry): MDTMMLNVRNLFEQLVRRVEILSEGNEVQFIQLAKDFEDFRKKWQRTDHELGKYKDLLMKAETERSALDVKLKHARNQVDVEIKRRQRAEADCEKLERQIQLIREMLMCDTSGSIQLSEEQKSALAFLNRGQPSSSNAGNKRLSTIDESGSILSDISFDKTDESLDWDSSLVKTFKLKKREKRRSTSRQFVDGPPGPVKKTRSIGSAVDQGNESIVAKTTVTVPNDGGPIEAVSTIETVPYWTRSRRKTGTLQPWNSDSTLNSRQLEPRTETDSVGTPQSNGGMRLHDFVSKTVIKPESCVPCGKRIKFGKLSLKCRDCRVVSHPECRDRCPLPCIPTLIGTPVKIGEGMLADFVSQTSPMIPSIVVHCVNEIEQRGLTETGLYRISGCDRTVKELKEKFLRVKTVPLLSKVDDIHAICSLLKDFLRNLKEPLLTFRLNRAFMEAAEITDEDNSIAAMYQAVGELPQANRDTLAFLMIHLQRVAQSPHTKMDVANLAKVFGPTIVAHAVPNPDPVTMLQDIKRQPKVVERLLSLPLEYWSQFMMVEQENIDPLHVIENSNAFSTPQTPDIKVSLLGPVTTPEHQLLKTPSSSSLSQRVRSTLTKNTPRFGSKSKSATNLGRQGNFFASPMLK
- Procedure Details: MgcRacGAP GTPase-activating activity inhibitors, confirmation, biochemical, ADP Hunter fluorescence, primary and confirmatory (AID 624330)
- Assay type: functional
Activity calls are given as the source filed them.

1. CCN1CCN(CC(c2ccccc2)c2ccccc2)CC1 : 197 µM (active)
2. Cc1cccc(CN2CCN(Cc3ccco3)CC2)c1 : 87.2 µM (active)
3. c1cc2c(cc1NC1CCCCCC1)OCO2 : 48.4 µM (active)

Give the value of IC50 reported for the following: COc1cc(-c2nc3ccccc3s2)ccc1O
16.1 µM (active)

Give the value of IC50 reported for the following: COc1ccc(/C=N/NC(=O)c2cccc(S(=O)(=O)N3CCCC3)c2)cc1O
57.5 µM (active)

Give the value of IC50 reported for the following: CCOc1cc(/C=N/NC(=O)c2ccccc2-n2cccc2)ccc1O
46.2 µM (active)

* * *

- Target System: Cytochrome P450 1A2 (Homo sapiens)
- Sequence (P05177 whole entry): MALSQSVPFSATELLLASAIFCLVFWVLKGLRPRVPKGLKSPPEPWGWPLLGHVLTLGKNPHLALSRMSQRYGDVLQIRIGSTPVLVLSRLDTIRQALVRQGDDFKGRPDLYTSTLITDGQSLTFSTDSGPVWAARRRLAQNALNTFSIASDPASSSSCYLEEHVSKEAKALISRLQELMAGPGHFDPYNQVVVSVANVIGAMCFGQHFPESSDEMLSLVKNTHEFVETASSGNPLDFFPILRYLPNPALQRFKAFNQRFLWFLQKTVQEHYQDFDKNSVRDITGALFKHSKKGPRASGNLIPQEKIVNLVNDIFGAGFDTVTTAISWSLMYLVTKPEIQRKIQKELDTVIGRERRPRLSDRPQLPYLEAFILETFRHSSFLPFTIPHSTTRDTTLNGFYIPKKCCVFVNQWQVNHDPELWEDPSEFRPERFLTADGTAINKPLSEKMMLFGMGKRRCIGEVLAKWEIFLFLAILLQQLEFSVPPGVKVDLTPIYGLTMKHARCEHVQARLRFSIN
Property Name: AC50

System Cytochrome P450 1A2 (Homo sapiens). Read-out AC50. Item O=[N+]([O-])c1cc(O)c(O)c([N+](=O)[O-])c1 [3,5-DINITROCATECHOL (OR-486)] . Report value.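 Further: PubChem cytochrome P450 panel assay, CYP1A2 panel member.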
39.8 µM (inconclusive)

* * *

Measured EC50, listed per entry.
- Target System: Peroxisome proliferator-activated receptor gamma/Nuclear receptor coactivator 2 (Homo sapiens, UniProt P37231)
- Sequence (P37231 whole entry): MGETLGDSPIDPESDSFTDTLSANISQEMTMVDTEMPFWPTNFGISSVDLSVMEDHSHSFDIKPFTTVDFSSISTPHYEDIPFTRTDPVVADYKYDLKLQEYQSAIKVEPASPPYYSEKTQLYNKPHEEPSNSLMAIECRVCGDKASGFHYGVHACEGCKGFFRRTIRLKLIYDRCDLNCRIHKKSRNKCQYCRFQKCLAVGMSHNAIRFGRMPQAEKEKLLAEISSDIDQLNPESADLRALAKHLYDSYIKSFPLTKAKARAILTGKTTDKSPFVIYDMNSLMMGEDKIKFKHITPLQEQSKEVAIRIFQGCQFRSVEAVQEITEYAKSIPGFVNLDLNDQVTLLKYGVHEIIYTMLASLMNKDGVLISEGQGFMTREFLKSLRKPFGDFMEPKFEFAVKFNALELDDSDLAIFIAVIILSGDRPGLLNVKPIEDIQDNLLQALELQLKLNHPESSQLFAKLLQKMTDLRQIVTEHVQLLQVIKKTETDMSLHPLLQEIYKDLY
- Sequence (Q15596 whole entry, further chain): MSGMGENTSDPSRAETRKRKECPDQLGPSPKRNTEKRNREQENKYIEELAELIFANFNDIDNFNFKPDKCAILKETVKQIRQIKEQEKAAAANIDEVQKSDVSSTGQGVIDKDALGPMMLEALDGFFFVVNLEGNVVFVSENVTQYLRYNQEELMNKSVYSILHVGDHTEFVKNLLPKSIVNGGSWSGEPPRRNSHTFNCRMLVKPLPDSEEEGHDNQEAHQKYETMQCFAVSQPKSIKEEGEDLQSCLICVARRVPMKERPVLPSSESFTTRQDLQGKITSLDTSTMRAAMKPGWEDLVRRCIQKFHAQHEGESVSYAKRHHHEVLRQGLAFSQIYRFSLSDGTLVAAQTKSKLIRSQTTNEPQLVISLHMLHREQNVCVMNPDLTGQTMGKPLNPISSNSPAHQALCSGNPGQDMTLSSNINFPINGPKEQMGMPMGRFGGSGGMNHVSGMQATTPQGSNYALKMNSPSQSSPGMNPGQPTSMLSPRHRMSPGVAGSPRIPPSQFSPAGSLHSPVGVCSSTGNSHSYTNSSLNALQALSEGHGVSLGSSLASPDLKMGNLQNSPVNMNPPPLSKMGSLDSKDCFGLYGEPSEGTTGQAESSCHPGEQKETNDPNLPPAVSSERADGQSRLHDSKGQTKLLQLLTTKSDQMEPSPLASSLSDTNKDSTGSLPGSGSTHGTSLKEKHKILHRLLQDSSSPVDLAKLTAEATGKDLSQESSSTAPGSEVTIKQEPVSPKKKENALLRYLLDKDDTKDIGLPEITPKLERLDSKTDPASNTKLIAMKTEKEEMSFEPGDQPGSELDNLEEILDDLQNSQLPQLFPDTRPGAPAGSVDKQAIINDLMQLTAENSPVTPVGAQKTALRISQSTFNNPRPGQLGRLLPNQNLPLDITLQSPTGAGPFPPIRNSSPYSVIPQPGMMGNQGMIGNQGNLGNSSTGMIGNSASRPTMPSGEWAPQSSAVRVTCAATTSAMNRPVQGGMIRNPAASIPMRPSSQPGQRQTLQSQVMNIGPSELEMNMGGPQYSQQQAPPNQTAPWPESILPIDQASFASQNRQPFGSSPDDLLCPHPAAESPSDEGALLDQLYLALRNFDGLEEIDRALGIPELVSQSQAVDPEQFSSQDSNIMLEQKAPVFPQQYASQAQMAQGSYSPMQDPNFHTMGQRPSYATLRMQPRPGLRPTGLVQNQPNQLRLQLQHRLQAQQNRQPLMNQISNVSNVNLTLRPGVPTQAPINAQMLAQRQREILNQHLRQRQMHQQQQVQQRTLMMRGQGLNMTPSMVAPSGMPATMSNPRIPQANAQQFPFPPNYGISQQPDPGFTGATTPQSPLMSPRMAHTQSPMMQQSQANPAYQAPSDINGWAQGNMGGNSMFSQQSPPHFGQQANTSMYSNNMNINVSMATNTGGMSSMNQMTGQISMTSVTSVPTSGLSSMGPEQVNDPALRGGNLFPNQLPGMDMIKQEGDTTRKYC
- Procedure Details: TR-FRET dose response biochemical High Throughput Screening assay for agonists of the steroid receptor coactivator 2 (SRC-2) recruitment by the peroxisome proliferator-activated receptor gamma (PPAR gamma): non-selective agonists. [Related pubchem assays: 1297, 1032 ]
- Assay type: functional

// worked examples, EC50 included
1. C=CCOc1ccc(C2C(C(=O)c3ccco3)=C(O)C(=O)N2c2nnc(C)s2)cc1 (stereo not given) : > 79.4 µM (not active)
2. CCc1cc2cc(C(=O)Nc3ccc(F)cc3)sc2s1 : 57.1 µM (not active)
3. COc1cc(-c2nc3ccccc3s2)ccc1O : 13 µM (not active)
4. CCn1c(=O)cc(SCC(=O)N2CCN(c3ccccn3)CC2)c2ccccc21 : > 79.4 µM (not active)

Consider now this further compound.
Give the value of EC50 reported for the following: O=C1NN(c2ccccc2)C(=O)/C1=C/c1ccc(Sc2cccc3ccccc23)o1
92.2 µM (not active)

* * *

- Target System: Streptokinase A (Streptococcus pyogenes serotype M1, UniProt P10520)
- Sequence (P10520 whole entry): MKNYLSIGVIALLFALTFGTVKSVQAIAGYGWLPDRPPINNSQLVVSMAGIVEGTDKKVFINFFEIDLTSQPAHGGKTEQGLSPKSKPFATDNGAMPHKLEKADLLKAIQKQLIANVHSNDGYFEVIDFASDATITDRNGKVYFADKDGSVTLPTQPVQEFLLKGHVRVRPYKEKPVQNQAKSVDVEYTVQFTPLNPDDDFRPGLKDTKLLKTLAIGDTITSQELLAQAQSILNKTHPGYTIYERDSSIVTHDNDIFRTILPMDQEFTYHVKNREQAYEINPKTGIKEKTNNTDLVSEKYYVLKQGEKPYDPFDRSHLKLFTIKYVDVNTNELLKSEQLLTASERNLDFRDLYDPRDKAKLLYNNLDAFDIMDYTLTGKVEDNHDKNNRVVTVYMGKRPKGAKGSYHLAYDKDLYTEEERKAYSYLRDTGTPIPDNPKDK
- Procedure Details: S. pyogenes streptokinase expression inhibitors, potency, dose response, plasminogen activation absorbance, OD405 (AID 1914);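 further: secreted streptokinase activity via plasminogen activation per viability signal from cell pellet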
- Type: functional, Streptococcus pyogenes M1 GAS
The source made the active and inactive calls.
Property Name: EC50

1) O=C(Nc1nnc(SCc2ccc(F)cc2)s1)c1ccc2c(c1)C(=O)N(c1ccccc1Cl)C2=O : > 150 µM (not active)
2) CC(C)(C)OC(=O)[C@H](Cc1ccccc1)NC(=O)c1[nH]cnc1C(=O)Nc1cccc(Cl)c1 : 38.3 µM (active)
3) Cc1ccc(NC(=O)CN(C)Cc2nc(O)c3cc(Br)cc(Br)c3n2)cc1 : > 150 µM (not active)
4) COc1ccc(CCNc2nc(-c3ccccn3)cs2)cc1OC : > 150 µM (not active)
5) CC(/C=C/C=C/c1ccccc1)=N/NC(=O)c1ccc2c(c1)OCCO2 : > 150 µM (not active)

Give the value of EC50 reported for the following: CCCN(Cc1ccco1)S(=O)(=O)c1ccc(OC)c(OC)c1
> 150 µM (not active)

Give the value of EC50 reported for the following: Cc1ccc(Nc2nc3nonc3[nH]c2=O)cc1Cl
31.1 µM (active)

Give the value of EC50 reported for the following: Cc1cccc(N=Nc2c(C)nn(-c3ccccc3)c2N)c1C
22 µM (active)

Give the value of EC50 reported for the following: CN1CCN(C(=O)C(=O)c2cn(CC(=O)N3CCCC3)c3ccccc23)CC1
> 150 µM (not active)

Give the value of EC50 reported for the following: C/C(N)=C(/C#N)C(=O)COC(=O)c1cc(-c2ccc(Br)cc2)nc2ccccc12
4.43 µM (active)

* * *

- Target System: Cytochrome P450 2C19 (Homo sapiens)
- Sequence (P33261 whole entry): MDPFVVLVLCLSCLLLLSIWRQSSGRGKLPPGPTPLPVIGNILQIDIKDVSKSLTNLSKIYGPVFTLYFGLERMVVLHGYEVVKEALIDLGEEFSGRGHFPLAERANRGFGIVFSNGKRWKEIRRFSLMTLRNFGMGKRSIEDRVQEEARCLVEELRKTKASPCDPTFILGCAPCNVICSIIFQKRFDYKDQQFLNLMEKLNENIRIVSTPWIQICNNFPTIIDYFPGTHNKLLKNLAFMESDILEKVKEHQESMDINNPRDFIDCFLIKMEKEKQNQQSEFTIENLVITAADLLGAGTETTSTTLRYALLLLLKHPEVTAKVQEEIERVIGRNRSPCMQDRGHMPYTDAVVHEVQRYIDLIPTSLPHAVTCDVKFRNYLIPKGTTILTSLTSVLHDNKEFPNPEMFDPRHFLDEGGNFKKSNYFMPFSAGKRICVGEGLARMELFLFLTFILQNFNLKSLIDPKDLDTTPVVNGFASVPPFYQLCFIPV
- Procedure Details: Cytochrome panel assay with activity outcomes. Panel member name: p450-cyp2c19 Compounds with AC50 equal or less than 10 uM are considered active
- Format: functional
Property Name: AC50

// worked examples, AC50 included
1) CSc1nnnc2ccccc12 : inconclusive
2) Cc1cc(NC(=O)c2c([N+](=O)[O-])c(C)nn2C)no1 : inconclusive
3) C[C@@]1(O)CCOC(=O)C1 : inconclusive
4) CN1CCN(c2ncc3nc(-c4ccc(Cl)cc4)c(=O)n(CCC#N)c3n2)CC1 : inconclusive

Give the value of AC50 reported for the following: C[N+](C)(N)CCC[N+](C)(C)N
inconclusive

* * *

- Target System: Protein RecA (Mycobacterium tuberculosis, UniProt P9WHJ3)
- Procedure Details: Fluorescence Cell-Free Homogeneous Dose Retest to Identify Inhibitors of RecA-Intein Splicing Activity. [Related pubchem assays (depositor defined):AID2097, AID2223, AID489010, AID492950]
- Assay type: functional
Calls of active or inactive are those of the source.
I would appreciate it if you answered using one of these outcomes: y for active, n for inactive

1) Cc1cc(C)c(S(=O)(=O)ON2C(=O)c3ccccc3C2=O)cc1C : y
2) CCCc1c(O)oc2nnc(C)c-2c1C : y
3) O=C(Nc1ccc(Cl)c(Cl)c1)Nc1ccccc1NS(=O)(=O)c1cccs1 : y

Call for entry Oc1ccc(O)c(Cc2nc3ccccc3s2)c1 :
n

Call for entry N#CC1=C(N)Oc2[nH]nc(-c3ccc(F)cc3)c2C1c1cccnc1 (stereo not given) :
y

* * *

Measured EC50, listed per entry.
- Target System: Ion channel NompC (Danio rerio)
- Sequence (Q7T1G6 whole entry): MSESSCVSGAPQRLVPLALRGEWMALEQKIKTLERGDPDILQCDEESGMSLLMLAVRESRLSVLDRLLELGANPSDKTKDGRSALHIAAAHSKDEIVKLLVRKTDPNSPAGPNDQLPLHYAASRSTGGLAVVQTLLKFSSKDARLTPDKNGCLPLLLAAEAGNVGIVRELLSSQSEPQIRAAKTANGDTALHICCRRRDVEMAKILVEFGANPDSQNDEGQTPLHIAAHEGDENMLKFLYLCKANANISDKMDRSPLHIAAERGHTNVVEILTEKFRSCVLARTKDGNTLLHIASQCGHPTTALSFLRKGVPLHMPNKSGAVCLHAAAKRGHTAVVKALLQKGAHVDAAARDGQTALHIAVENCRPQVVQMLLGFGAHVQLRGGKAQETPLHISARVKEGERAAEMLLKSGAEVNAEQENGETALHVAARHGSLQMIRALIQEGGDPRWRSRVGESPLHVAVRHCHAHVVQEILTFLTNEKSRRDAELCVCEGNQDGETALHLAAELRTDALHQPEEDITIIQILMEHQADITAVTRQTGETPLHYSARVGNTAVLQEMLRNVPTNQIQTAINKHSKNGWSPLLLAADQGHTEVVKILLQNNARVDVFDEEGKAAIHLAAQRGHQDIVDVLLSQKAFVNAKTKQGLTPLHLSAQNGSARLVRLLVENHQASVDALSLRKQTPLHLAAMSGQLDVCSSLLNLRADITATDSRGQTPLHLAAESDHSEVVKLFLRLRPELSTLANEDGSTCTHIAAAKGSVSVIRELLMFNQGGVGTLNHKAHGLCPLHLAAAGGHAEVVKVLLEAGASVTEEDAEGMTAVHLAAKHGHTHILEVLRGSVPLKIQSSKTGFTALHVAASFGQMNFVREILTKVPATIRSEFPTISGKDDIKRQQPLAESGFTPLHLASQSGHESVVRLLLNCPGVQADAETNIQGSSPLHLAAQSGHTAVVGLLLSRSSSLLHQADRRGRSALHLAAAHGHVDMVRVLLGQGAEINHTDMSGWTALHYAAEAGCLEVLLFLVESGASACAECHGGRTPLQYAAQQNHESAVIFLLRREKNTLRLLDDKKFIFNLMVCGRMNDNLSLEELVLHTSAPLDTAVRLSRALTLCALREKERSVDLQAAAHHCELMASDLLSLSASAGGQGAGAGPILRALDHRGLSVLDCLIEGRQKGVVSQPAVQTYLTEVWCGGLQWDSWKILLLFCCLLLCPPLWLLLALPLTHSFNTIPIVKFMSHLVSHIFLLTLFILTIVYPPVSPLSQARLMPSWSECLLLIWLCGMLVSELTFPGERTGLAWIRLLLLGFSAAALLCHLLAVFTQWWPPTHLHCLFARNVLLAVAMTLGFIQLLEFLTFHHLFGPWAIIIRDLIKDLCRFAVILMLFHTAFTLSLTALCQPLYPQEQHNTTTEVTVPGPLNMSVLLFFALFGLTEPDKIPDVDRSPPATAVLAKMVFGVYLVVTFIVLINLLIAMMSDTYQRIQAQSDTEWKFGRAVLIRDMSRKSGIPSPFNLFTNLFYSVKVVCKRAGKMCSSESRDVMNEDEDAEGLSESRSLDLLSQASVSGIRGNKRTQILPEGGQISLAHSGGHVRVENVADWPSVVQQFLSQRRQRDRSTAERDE
- Procedure Details: Fluorescence counterscreen assay for TRPML3 agonists: dose response cell-based high-throughput screening assay to identify agonists of the transient receptor potential channel N1 (TRPN1). [Related pubchem assays: 1526, 1424, 1448 ]
- Assay type: functional

// worked examples, EC50 included
1) N=C1SCC(=O)N1c1ncc(Cc2ccccc2Cl)s1 : > 29.9 µM (not active)
2) Cc1ccc(S(=O)(=O)NC2CCCCC2)c2nsnc12 : > 29.9 µM (not active)
3) Cc1cc(C)c(S(=O)(=O)Nc2ccccc2-c2ccccc2)c(C)c1 : > 29.9 µM (not active)

Consider now this further compound.
Give the value of EC50 reported for the following: CC1=CC(C)(C)N(C(=O)CN2C(=O)c3ccccc3C2=O)c2ccccc21
> 29.9 µM (not active)

* * *

- Target System: Calpain-2 catalytic subunit (Sus scrofa)
- Sequence (P43367 whole entry): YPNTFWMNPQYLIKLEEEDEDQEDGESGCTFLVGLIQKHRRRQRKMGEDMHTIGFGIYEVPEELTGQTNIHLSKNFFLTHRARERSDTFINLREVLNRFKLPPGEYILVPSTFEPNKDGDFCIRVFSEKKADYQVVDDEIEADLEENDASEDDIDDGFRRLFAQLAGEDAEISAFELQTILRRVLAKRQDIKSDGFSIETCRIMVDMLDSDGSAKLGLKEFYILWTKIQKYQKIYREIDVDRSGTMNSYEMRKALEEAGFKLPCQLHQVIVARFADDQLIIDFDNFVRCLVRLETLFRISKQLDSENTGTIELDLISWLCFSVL
- Procedure Details: pig calpain II inhibitor potency, dose response, biochemical, fluorogenic peptide substrate (AID 1420)
- Type: functional
Property Name: IC50

1) Cc1cccc(N2CCN(C(=O)CN3C(=O)C4CC=CCC4C3=O)CC2)c1C (stereo not drawn) : > 50 µM (not active)
2) C/C(=N\NC(=S)NC1CCCCC1)c1ccc(OC(F)F)cc1OC(F)F : 3.12 µM (not active)
3) CC(=O)c1c(C)[nH]c(C(=O)OCc2cccc(Cl)c2)c1C : 7.75 µM (not active)
4) CCCC(=O)Nc1ccccc1NC(=O)CCC : > 50 µM (not active)
5) CC(C)CCN(C(=O)Nc1ccccc1)C(C)c1cccs1 (stereo not drawn) : 20.3 µM (not active)

Give the value of IC50 reported for the following: CCOc1ccc(/C=N/OCC(=O)NC(c2ccccc2)c2ccccc2)cc1
7.59 µM (not active)

Give the value of IC50 reported for the following: CCOc1cc(CNc2ccc(O)cc2)cc(Br)c1OCc1ccccc1F
9.81 µM (not active)

Give the value of IC50 reported for the following: CCN=C(S)N(CCc1c(C)[nH]c2ccc(Cl)cc12)Cc1ccco1
9.05 µM (not active)

This collection of values is drawn from ChEMBL document CHEMBL1201862.
